# Test system: Huh7 cells
# protocol-description: Cell proliferation, Huh7 (CellTiter Glo)
# Assay type: cell-based
# condition-summary: Homo sapiens, Huh-7; Huh7; 120 hr; read-out: Cell Proliferation GI50 (nM) HUH
recorded-metric: GI50

compound="C=CC(=O)NC1CCCCC1Nc1ncc2c(n1)N(CCF)C(=O)N(c1c(Cl)c(OC)cc(OC)c1Cl)C2 (racemic)" tested_system="Huh7 cells" recorded_metric=GI50 result_value="> 1000 nM"
compound=C=CC(=O)N[C@H]1COC[C@H]1Nc1ncc2c(n1)N(C)C(=O)N(c1c(Cl)c(OC)cc(OC)c1Cl)C2 tested_system="Huh7 cells" recorded_metric=GI50 result_value="< 100 nM"
compound=C=CC(=O)Nc1cc(-c2nnn(C)n2)ccc1Nc1ncc2c(n1)N(C)C(=O)N(c1cc(OC)cc(OC)c1)C2 tested_system="Huh7 cells" recorded_metric=GI50 result_value="> 1000 nM"
compound=C=CC(=O)Nc1cc(N2CCN(C(=O)CCCC(=O)NCCCOCCOCCOCCCNC(=O)CCCC[C@@H]3SC[C@@H]4NC(=O)N[C@@H]43)CC2)ccc1Nc1ncc2c(n1)N(C)C(=O)N(c1c(Cl)c(OC)cc(OC)c1Cl)C2 tested_system="Huh7 cells" recorded_metric=GI50 result_value="> 1000 nM"
compound="C=CC(=O)NC1CCCCC1Nc1ncc2c(n1)N(Cc1cscn1)C(=O)N(c1c(Cl)c(OC)cc(OC)c1Cl)C2 (racemic)" tested_system="Huh7 cells" recorded_metric=GI50 result_value="501 to 999 nM"
compound=C=CC(=O)Nc1ccccc1Nc1ncc2c(n1)N(CC1CC1)C(=O)N(c1cc(OC)cc(OC)c1Cl)C2 tested_system="Huh7 cells" recorded_metric=GI50 result_value="501 to 999 nM"
compound="C=CC(=O)NC1CC=CCC1Nc1ncc2c(n1)N(C)C(=O)N(c1c(Cl)c(OC)cc(OC)c1Cl)C2 (racemic)" tested_system="Huh7 cells" recorded_metric=GI50 result_value="501 to 999 nM"
compound=C=CC(=O)Nc1ccccc1Nc1ncc2c(n1)N(Cc1cn[nH]c1)C(=O)N(c1cc(OC)cc(OC)c1)C2 tested_system="Huh7 cells" recorded_metric=GI50 result_value="501 to 999 nM"
compound="C=CC(=O)NC1COCC1Nc1ncc2cc(-c3c(Cl)c(OC)cc(OC)c3Cl)c(=O)n(C)c2n1 (stereo not shown)" tested_system="Huh7 cells" recorded_metric=GI50 result_value="< 100 nM"
compound=C=CC(=O)Nc1cc(N2CCN(C(C)=O)CC2)ccc1Nc1ccc2c(c1)N(C)C(=O)N(c1cc(OC)cc(OC)c1)C2 tested_system="Huh7 cells" recorded_metric=GI50 result_value="101 to 500 nM"
compound="C=CC(=O)NC1CCCCC1Nc1ncc2c(n1)N(CC(F)F)C(=O)N(c1c(Cl)c(OC)cc(OC)c1Cl)C2 (racemic)" tested_system="Huh7 cells" recorded_metric=GI50 result_value="501 to 999 nM"
compound=C=CC(=O)Nc1ccccc1Nc1ncc2c(n1)N(CC1CC1)C(=O)N(c1cc(OC)cc(OC)c1)C2 tested_system="Huh7 cells" recorded_metric=GI50 result_value="> 1000 nM"
compound=C=CC(=O)Nc1ccccc1Nc1ncc2c(n1)N(Cc1cccnc1)C(=O)N(c1cc(OC)cc(OC)c1)C2 tested_system="Huh7 cells" recorded_metric=GI50 result_value="> 1000 nM"
compound=C=CC(=O)Nc1ccccc1Nc1ncc2c(n1)N(C)C(=O)N(c1c(Cl)cccc1Cl)C2 tested_system="Huh7 cells" recorded_metric=GI50 result_value="> 1000 nM"
compound=C=CC(=O)Nc1ccccc1Nc1ncc2c(n1)N(Cc1cscn1)C(=O)N(c1cc(OC)cc(OC)c1)C2 tested_system="Huh7 cells" recorded_metric=GI50 result_value="> 1000 nM"
compound=C=CC(=O)Nc1ccccc1Nc1ncc2c(n1)N(Cc1ccnc(N)c1)C(=O)N(c1cc(OC)cc(OC)c1)C2 tested_system="Huh7 cells" recorded_metric=GI50 result_value="101 to 500 nM"
compound=C=CC(=O)Nc1ccccc1Nc1ncc2c(n1)N(CCOC)C(=O)N(c1cc(OC)cc(OC)c1)C2 tested_system="Huh7 cells" recorded_metric=GI50 result_value="> 1000 nM"
compound=C=CC(=O)Nc1cc(C(F)(F)F)ccc1Nc1ncc2c(n1)N(C)C(=O)N(c1cc(OC)cc(OC)c1)C2 tested_system="Huh7 cells" recorded_metric=GI50 result_value="> 1000 nM"
compound="C=CC(=O)NC1COCC1Nc1ncc2c(n1)N(Cc1cn[nH]c1)C(=O)N(c1c(Cl)c(OC)cc(OC)c1Cl)C2 (stereo not shown)" tested_system="Huh7 cells" recorded_metric=GI50 result_value="101 to 500 nM"
compound=C=CC(=O)Nc1ccc(C(F)(F)F)cc1Nc1ncc2c(n1)N(C)C(=O)N(c1cc(OC)cc(OC)c1)C2 tested_system="Huh7 cells" recorded_metric=GI50 result_value="> 1000 nM"
compound="C=CC(=O)NC1CN(c2ccncn2)CC1Nc1ncc2c(n1)N(C)C(=O)N(c1c(Cl)c(OC)cc(OC)c1Cl)C2 (stereo not shown)" tested_system="Huh7 cells" recorded_metric=GI50 result_value="501 to 999 nM"
compound=C=CC(=O)Nc1ccccc1Nc1ncc2c(n1)N(Cc1cnn(C)c1)C(=O)N(c1c(Cl)c(OC)cc(OC)c1Cl)C2 tested_system="Huh7 cells" recorded_metric=GI50 result_value="< 100 nM"

---

# Tested on: Huh7 cells
# protocol-description: Cell proliferation, Huh7 (CellTiter Glo)
# Format: cell-based
# condition-summary: Homo sapiens, Huh-7; Huh7; 120 hr; read-out: Cell Proliferation GI50 (nM) HUH
recorded-metric: GI50

molecule="C=CC(=O)NC1COCC1Nc1ncc2c(n1)N(Cc1cscn1)C(=O)N(c1c(Cl)c(OC)cc(OC)c1Cl)C2 (stereo not drawn)" recorded_metric=GI50 result_value="101 to 500 nM"
molecule="C=CC(=O)NC1COCC1Nc1ncc2c(n1)N(Cc1ccn(C)n1)C(=O)N(c1c(Cl)c(OC)cc(OC)c1Cl)C2 (stereo not drawn)" recorded_metric=GI50 result_value="101 to 500 nM"
molecule=C=CC(=O)Nc1cc(N2CCN(CCOC)CC2)ccc1Nc1ncc2c(n1)N(Cc1cccc(NC(=O)CC)c1)C(=O)N(c1cc(OC)cc(OC)c1)C2 recorded_metric=GI50 result_value="501 to 999 nM"

---

# tested-system: UniProtKB P22455
# Sequence (P22455 22-802): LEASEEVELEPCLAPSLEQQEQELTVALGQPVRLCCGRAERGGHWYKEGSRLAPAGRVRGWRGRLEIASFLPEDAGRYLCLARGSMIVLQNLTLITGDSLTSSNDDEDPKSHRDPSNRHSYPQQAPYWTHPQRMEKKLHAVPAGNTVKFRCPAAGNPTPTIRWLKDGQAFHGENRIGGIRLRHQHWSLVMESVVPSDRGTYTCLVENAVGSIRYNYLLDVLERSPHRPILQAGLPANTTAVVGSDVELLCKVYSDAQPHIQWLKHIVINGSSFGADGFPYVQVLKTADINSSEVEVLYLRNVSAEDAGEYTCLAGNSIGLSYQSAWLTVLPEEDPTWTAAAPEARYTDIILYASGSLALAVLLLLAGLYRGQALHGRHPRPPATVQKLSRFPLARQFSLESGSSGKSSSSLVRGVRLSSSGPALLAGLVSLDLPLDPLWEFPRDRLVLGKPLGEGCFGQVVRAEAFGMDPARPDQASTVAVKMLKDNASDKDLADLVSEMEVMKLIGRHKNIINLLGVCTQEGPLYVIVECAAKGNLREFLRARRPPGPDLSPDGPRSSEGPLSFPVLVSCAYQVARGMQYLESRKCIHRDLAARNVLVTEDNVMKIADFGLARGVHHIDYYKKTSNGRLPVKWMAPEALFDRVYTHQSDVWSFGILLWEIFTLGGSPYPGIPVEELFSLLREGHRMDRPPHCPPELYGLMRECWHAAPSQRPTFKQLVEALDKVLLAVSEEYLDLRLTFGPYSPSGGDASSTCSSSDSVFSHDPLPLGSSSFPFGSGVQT
# protocol-description: Omnia assay for potency assessment against FGFR4 enzyme
# Type: biochemical
# condition-summary: method a: Invitrogen FGFR4-WT 10 nM, ATP 300 uM, Y10-Sox 10 uM; read-out: FGFR4 IC50
pIC50: −log10 of the molar value.
Quick reference for pIC50 among some molecules
recorded-metric: pIC50

molecule=C=CC(=O)Nc1ccccc1Nc1ncc2cc(-c3cc(OC)cc(OC)c3)c(N)nc2n1 recorded_metric=pIC50 result_value="> 7.00"
molecule=C=CC(=O)Nc1ccccc1Nc1ncc2c(n1)N(Cc1cccc(NC(=O)CC)c1)C(=O)N(c1c(Cl)c(OC)cc(OC)c1Cl)C2 recorded_metric=pIC50 result_value="> 7.00"
molecule=C=CC(=O)N[C@H]1CCCC[C@H]1Nc1ncc2c(n1)N(C)C(=O)N(c1c(Cl)c(OC)c(OC)c(OC)c1Cl)C2 recorded_metric=pIC50 result_value="< 6.00"
molecule="C=CC(=O)NC1CCCCC1Nc1ncc2c(n1)N(C1CCC1)C(=O)N(c1c(Cl)c(OC)cc(OC)c1Cl)C2 (racemic)" recorded_metric=pIC50 result_value="> 7.00"
molecule=C=CC(=O)Nc1cc(N2CCN(C(=O)OC(C)(C)C)CC2)ccc1Nc1ncc2c(n1)N(C)C(=O)N(c1c(Cl)c(OC)cc(OC)c1Cl)C2 recorded_metric=pIC50 result_value="> 7.00"
molecule="C=CC(=O)NC1CCCCC1Nc1ncc2c(n1)N(Cc1cccc(NS(C)(=O)=O)c1)C(=O)N(c1c(Cl)c(OC)cc(OC)c1Cl)C2 (racemic)" recorded_metric=pIC50 result_value="> 7.00"
molecule="C=CC(=O)NC1CCCCC1Nc1ncc2c(n1)N(CC1CC1)C(=O)N(c1c(Cl)c(OC)cc(OC)c1Cl)C2 (racemic)" recorded_metric=pIC50 result_value="> 7.00"
molecule="C=CC(=O)NC1CCCCC1Nc1ncc2c(n1)N(CC(F)F)C(=O)N(c1cc(OC)cc(OC)c1Cl)C2 (racemic)" recorded_metric=pIC50 result_value="< 6.00"
molecule=C=CC(=O)N[C@H]1CCCC[C@H]1Nc1ncc2c(n1)N(Cc1cnn(C)c1)C(=O)N(c1c(Cl)c(OC)cc(OC)c1Cl)C2 recorded_metric=pIC50 result_value="> 7.00"
